Cited source for all entries: patent US8350079B2

measurement-description: Extended room temperature storage of treprostinil monohydrate lot D-1007-089 (18-month stability summary: water content, assay/impurity profile)
Format: physicochemical
protocol-conditions: 18 Month, Container 1 (closed), room temperature
outcome-measure: 751W93

INSERT INTO results (molecule, recorded_value) VALUES
  ('CCCCC[C@H](O)CC[C@@H]1[C@H]2Cc3cccc(OCC(=O)O)c3C[C@H]2C[C@H]1O [TREPROSTINIL Lot# D-1007-089, treprostinil monohydrate]', '< 0.05%');

###

measurement-description: Extended room temperature storage of treprostinil monohydrate lot D-1007-089 (18-month stability summary: water content, assay/impurity profile)
Format: physicochemical
protocol-conditions: Initial, Container 2 (covered with Kimwipe), room temperature
outcome-measure: 750W93 (%)

INSERT INTO results (molecule, outcome_measure, recorded_value) VALUES
  ('CCCCC[C@H](O)CC[C@@H]1[C@H]2Cc3cccc(OCC(=O)O)c3C[C@H]2C[C@H]1O [TREPROSTINIL Lot# D-1007-089, treprostinil monohydrate]', '750W93', 0.1);
